FYI, the data here is from PubChem BioAssay.

- protocolDetails: yeast transport mutant growth inhibition pilot in 384-well plates, post-Golgi transport modulator project (AID 636); note: test concentration not given here
- runConditions: absorbance 615 nm, about 18 h, hits give high values
endpoint: inhibition (%)
Kindly provide the numeric value in % only, without the unit symbol.

Guide cases for inhibition, answers given:
>  <compound>
CN1C(=O)N(C)C(=O)C2(Cc3ccccc3N3CCOCC32)C1=O (stereo not given)

>  <inhibition (%)>
-6.8

$$$$
>  <compound>
O=c1[nH]c(=O)n(CCc2ccc(F)cc2)c(O)c1C=NCCCn1ccnc1

>  <inhibition (%)>
-4.8

$$$$
>  <compound>
COC1=CC(=O)OC(/C=C/c2ccccc2)C1 (stereo not given)

>  <inhibition (%)>
-1.56

$$$$
>  <compound>
Cc1ccc(C)c(NC(=O)CSc2nnc([C@@H](N)Cc3c[nH]c4ccccc34)o2)c1

>  <inhibition (%)>
-5.2

$$$$

Proceed to the following item.
Note to self: inhibition recorded for CCOC(=O)C1SC2(C(F)F)CC1(O)c1c(c(OC)c3occc3c1OC)O2 (stereo not given) was -4.73
